Measured values drawn from PubChem BioAssay (Tox21) for this set.

Molecular target: Acetylcholinesterase (Homo sapiens) (UniProt P22303)
Sequence (P22303 whole entry, looked up): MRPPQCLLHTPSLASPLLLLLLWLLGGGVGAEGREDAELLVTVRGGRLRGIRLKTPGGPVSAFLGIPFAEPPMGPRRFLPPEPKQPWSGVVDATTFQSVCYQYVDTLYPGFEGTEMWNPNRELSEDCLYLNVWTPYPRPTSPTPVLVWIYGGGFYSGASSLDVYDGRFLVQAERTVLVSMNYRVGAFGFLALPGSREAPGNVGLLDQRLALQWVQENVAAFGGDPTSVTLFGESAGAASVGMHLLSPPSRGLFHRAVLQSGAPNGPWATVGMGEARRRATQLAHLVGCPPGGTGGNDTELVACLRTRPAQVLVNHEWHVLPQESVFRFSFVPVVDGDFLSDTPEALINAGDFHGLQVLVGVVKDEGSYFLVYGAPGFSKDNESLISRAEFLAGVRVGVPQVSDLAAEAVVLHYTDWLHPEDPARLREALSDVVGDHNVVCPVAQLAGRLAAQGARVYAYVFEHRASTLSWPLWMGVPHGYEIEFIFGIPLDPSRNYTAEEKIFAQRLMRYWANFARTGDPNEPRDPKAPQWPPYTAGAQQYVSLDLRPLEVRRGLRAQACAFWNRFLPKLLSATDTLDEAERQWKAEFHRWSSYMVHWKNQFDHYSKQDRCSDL
Assay: Acetylcholinesterase (AChE) small molecule antagonists: enzyme-based qHTS assay (AID 1347397); further: nearly all actives have a fitted effect of over 55% in size
Settings: AChE enzyme activity inhibition; series mostly up to 115 µM
The source made the active and inactive calls. The call rests on the fitted dose curve.
The reply should name one outcome from 1 (yes) = active, 0 (no) = inactive

Exam item: How was C=CN1CCCCCC1=O classified in this test?
Marked response: 0 (no)

Exam item: How was Cc1cn[nH]c1 classified in this test?
Marked response: 0 (no)

Exam item: How was CCN(CC)CCOC(=O)C1(c2ccccc2)CCCC1 classified in this test?
Marked response: 0 (no)

Exam item: How was CC(C)C(=O)Nc1cccc(C2CN3CCSC3=N2)c1 (stereo not given) classified in this test?
Marked response: 0 (no)

Exam item: How was CCCCCCCCCCCBr classified in this test?
Marked response: 0 (no)

Exam item: How was Clc1ccccc1-c1nc(-c2ccncc2)no1 classified in this test?
Marked response: 0 (no)

Exam item: How was CCN(CC)CCOCCOC(=O)C1(c2ccccc2)CCCC1 classified in this test?
Marked response: 0 (no)

Exam item: How was CC1=C(/C=C/C(C)=C\C=C\C(C)=C\C(=O)O)C(C)(C)CCC1 classified in this test?
Marked response: 0 (no)

Exam item: How was OCCC(O)CO (stereo not given) classified in this test?
Marked response: 0 (no)

Exam item: How was CCCCCOC(=O)CCCCC classified in this test?
Marked response: 0 (no)

Exam item: How was CC1(C)C(=O)N(Br)C(=O)N1Cl classified in this test?
Marked response: 0 (no)

Exam item: How was O=C(CC(=O)C(F)(F)F)c1ccccc1 classified in this test?
Marked response: 0 (no)

Exam item: How was Cc1ccc(O)c(O)c1 classified in this test?
Marked response: 0 (no)

Exam item: How was [Cl][Pt-2]([Cl])([Cl])[Cl] classified in this test?
Marked response: 1 (yes)

Exam item: How was CCCCOC(=O)C(C)O (stereo not given) classified in this test?
Marked response: 0 (no)
